# Study target: recombinant human mGlu4 expressed in HEK293 cells (Homo sapiens (Human), UniProt Q14833)
# Sequence (Q14833 33-912): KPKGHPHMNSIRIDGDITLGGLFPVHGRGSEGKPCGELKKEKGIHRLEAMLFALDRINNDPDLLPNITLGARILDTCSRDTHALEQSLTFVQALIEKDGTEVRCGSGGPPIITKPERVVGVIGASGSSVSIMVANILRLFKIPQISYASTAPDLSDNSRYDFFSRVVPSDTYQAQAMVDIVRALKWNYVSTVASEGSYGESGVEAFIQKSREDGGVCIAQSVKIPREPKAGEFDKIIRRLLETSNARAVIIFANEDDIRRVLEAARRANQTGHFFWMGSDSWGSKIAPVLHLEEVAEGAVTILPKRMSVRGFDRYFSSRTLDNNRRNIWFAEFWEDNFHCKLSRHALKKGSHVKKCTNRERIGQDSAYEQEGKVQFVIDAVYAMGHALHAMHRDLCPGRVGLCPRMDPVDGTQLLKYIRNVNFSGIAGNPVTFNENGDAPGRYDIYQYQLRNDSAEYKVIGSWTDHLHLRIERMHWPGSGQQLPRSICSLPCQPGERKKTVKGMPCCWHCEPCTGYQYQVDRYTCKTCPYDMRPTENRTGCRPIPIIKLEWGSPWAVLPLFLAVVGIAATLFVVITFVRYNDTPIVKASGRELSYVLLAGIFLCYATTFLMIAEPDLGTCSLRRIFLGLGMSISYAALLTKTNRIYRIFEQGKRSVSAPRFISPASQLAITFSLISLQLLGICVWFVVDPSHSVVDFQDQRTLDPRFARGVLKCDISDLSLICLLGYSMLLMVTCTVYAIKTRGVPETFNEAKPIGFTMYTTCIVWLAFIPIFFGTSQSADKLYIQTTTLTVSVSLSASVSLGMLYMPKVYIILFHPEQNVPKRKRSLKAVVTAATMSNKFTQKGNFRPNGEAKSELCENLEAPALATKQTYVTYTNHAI
# Protocol summary: Ca2+ mobilization in vitro assay, mGlu4 PAM (with EC20 of L-AP4)
# Assay type: cell-based
# Condition: human mGlu4 in HEK293 cells, Ca2+ mobilization, L-AP4 at EC20; read-out: EC50 (nM) mGlu4PAM
Recorded measurements of EC50, one per entry
Please append the unit to your numeric answer.

Some molecules with recorded EC50:
Molecule	Study target	Assay metric	Result
CC(C)N1C(=O)N(c2c(F)cc(C#Cc3ccccc3)cc2F)C(=O)C1(C)C [Example 3]	recombinant human mGlu4 expressed in HEK293 cells (Homo sapiens (Human), UniProt Q14833)	EC50	286 nM
CC(C)(C)N1CC(=O)N(c2c(F)cc(C#Cc3ccccc3)cc2F)C1=O [Example 8]	recombinant human mGlu4 expressed in HEK293 cells (Homo sapiens (Human), UniProt Q14833)	EC50	222 nM
CC1COCC2C(=O)N(c3c(F)cc(C#Cc4ccccc4)cc3F)C(=O)N12 (racemic) [Example 4]	recombinant human mGlu4 expressed in HEK293 cells (Homo sapiens (Human), UniProt Q14833)	EC50	204 nM

# input Item CC(C)N1CC(=O)N(c2c(F)cc(C#Cc3ccccc3)cc2F)C1=O [Example 1] has what recorded EC50?
# output 441 nM
